Measured values drawn from PubChem BioAssay AID504326 for this set.

- target_under_test: Mu-type opioid receptor (Homo sapiens) + Delta-type opioid receptor (Homo sapiens) (UniProt P35372+P41143)
- Sequence (P35372 whole entry, looked up): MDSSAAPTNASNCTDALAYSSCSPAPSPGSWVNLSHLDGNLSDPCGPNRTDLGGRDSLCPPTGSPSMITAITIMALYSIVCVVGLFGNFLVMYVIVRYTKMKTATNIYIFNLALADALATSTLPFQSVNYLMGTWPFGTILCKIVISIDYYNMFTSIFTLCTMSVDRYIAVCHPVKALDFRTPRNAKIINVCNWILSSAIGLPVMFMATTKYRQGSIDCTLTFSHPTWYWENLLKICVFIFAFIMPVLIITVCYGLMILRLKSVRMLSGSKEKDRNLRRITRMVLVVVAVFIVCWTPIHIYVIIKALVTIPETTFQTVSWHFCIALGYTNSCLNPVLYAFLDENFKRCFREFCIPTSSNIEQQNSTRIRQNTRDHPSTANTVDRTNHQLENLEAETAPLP
- Sequence (P41143 whole entry, looked up): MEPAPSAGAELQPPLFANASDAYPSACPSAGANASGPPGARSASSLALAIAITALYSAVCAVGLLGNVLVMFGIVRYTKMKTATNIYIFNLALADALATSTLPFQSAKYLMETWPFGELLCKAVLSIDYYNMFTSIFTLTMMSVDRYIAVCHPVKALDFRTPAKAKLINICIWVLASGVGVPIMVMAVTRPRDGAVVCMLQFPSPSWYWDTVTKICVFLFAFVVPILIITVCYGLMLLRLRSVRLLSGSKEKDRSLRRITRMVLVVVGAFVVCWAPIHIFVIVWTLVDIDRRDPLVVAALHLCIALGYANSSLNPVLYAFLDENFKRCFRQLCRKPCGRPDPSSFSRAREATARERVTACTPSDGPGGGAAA
- test_method_notes: inducers of mu-delta opioid receptor heterodimers – cell-based, luminescence, primary screen (AID 504326);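 also: 0% = vehicle-treated cells and 100% = reference agonist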
- condition: cells, OPRM1-OPRD1 heterodimerization, at 9.3 µM
About 990 (0.29%) of roughly 340,000 compounds were called active. Rule as the data show it: active = activation above about 18%; inactive = the rest. What follows is part of a selection rich in actives, with near analogues and random picks from the rest.
Respond using exactly one of the listed classes: label 1 = active, label 0 = inactive

As a guide, the following entries are already answered.
CCOC(=O)C1(c2ccccc2)CCN(CC(O)c2ccc(NC(C)=O)cc2)CC1 (stereo not given)    label 0
C[C@]12CCC3C(CC[C@H]4C[C@@H](O)CC[C@]34C)C1CC[C@@H]2O (stereo not given in full)    label 0
COC(=O)C1=C(c2c(C)noc2C)C[C@@H]2CC[C@H]1N2C(=O)NCc1ccc2c(c1)OCO2    label 0

Write down the call the test reported for this compound. Item: CCOC(=O)C1(CCc2ccccc2)CCN(Cc2ccco2)CC1
label 1

Per the records of this test, what outcome belongs to C[C@]12CCC3C(CC[C@H]4C[C@@H](O)CC[C@]34C)C1C[C@@H](O)[C@H]2O (stereo not given in full) ?
label 0

* * *

- target_under_test: Mu-type opioid receptor (Homo sapiens) + Delta-type opioid receptor (Homo sapiens) (UniProt P35372+P41143)
- test_method_notes: inducers of mu-delta opioid receptor heterodimers – cell-based, luminescence, primary screen (AID 504326);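 also: 0% = vehicle-treated cells and 100% = reference agonist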
- condition: cells, OPRM1-OPRD1 heterodimerization, at 9.3 µM
About 990 (0.29%) of roughly 340,000 compounds were called active. No stated cut-off is given here; in the data, active means activation above about 18%; inactive means the rest. The entries come from a sample that favours actives as a whole.
Can you answer with just one of these options? Y (active), N (inactive)

Cn1c(O)c(C=NCCCC(=O)O)c(=O)n(C)c1=O    N
CCOP(=O)(OCC)C(NC(=O)NC)C(N)=O (configuration not stated)    N
c1cc2c(cc1C1OCC3C(c4ccc5c(c4)OCO5)OCC13)OCO2 (configuration not stated)    N

What did this assay record as the result for COc1cc2nc(N3CCN(C(=O)[C@@H]4CCCO4)CC3)nc(N)c2cc1OC ?
N

Test call for this compound, please: COC1C(O)C(C)OC(OC2CCC3(C=O)C(CCC4C3CCC3(C)C(C5=CC(=O)OC5)CCC43O)C2)C1O (configuration not stated)
Y

// outcome(item) with item = O=C1NC(=O)C(CCOc2ccccc2)(CCc2ccccc2)C(=O)N1
N

Which outcome was entered for the compound COc1ccc(C2NCc3ccc4c(c3-n3cccc32)OCO4)cc1OC (configuration not stated) in this test?
N

* * *

- target_under_test: Mu-type opioid receptor (Homo sapiens) + Delta-type opioid receptor (Homo sapiens) (UniProt P35372+P41143)
- test_method_notes: inducers of mu-delta opioid receptor heterodimers – cell-based, luminescence, primary screen (AID 504326);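 also: 0% = vehicle-treated cells and 100% = reference agonist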
- condition: cells, OPRM1-OPRD1 heterodimerization, at 9.3 µM
About 990 (0.29%) of roughly 340,000 compounds were called active. Rule as the data show it: active = activation above about 18%; inactive = the rest. The list comes from a sample in which actives are over-represented; it also holds close analogues and randomly drawn compounds.
Pick from active, inactive when you respond.

Record excerpt, results attached:
NC(=O)Cn1cc(C(=O)c2ccccc2F)c2ccccc21    inactive
c1ccc2sc(C3CCCNC3)nc2c1 (stereo not given)    inactive
CCCCC(=O)N/N=C/c1c(O)n(CC)c(=S)n(CC)c1=O    inactive
CCC1(C)CC(CCNCc2ccc(N(C)C)cc2)(c2ccc(F)cc2)CCO1 (stereo not given)    active

Give the logged outcome of this assay for the following compound: CCOC(=O)C1(Cc2ccc(Cl)cc2)CCN(C(C)CCn2cccn2)CC1 (stereo not given)
inactive
